Data origin, for the record: PubChem BioAssay (NCI)

# Tested on: SNB-75 CNS
# TEST_DESCRIPTION: NCI tumour cell line growth inhibition, 48 h
As shown below, each of these compounds has a reported log10 TGI value.
log10 TGI, µM

As a guide, the following entries are already answered.
| COMPOUND | log10 TGI |
| --- | --- |
| C/C(Sc1ccccc1)=C1/CCCN(Cc2ccccc2)C1 | 1.94 |
| Nc1ccccc1C#Cc1ccccc1C#Cc1ccccc1N | 1.85 |
| O=C(c1ccc(F)c(F)c1Nc1ccc(I)cc1F)N1CC(O)([C@H]2CCCCN2)C1 | 1.31 |
| O=C(Nc1cccc(-n2cc(-c3ccncc3)c(-c3cc(O)cc(Cl)c3)n2)c1)Nc1ccc(Cl)c(Cl)c1 | 0.68 |
| C/C(=N\N=C(\N)OB(F)F)c1ccccn1 | 1.75 |

Query: Provide value of log10 TGI for this record tested with SNB-75 CNS: `NCC(=O)Nc1ccc(-n2nc(C(F)(F)F)cc2-c2ccc3c(ccc4ccccc43)c2)cc1`
Result: 0.45

Query: Field entry: `CCOC(=O)c1c(N2CCOCC2)[nH]c(=O)c(C(c2c(O)c(C(=O)OCC)c(N3CCOCC3)[nH]c2=O)C(C)C)c1O`
Result: 1.84

Query: Try the compound `COc1cc2c3c(n(CCCN=[N+]=[N-])c(=O)c2cc1OC)-c1ccc(N)cc1C3=O`
Result: -0.16

Query: Continue with `COc1cc(/C=C2\N=C(c3ccccc3)N(c3nc4c(Cl)cc(Cl)cc4s3)C2=O)ccc1O`
Result: 1.88

Query: Try `COc1cccc(/C=N/[N-]C(N)=O)c1[O-].[Cu+2].[OH3+].c1cnc2c(c1)ccc1cccnc12` next.
Result: 1.39

====

# System: RXF 393 renal
# TEST_DESCRIPTION: NCI tumour cell line growth inhibition, 48 h
Reported TGI is given for each of the following molecules.

| MOLECULE | SYSTEM | MEAS_VALUE |
| --- | --- | --- |
| Clc1cccc(Cn2cc(Cc3cn(Cc4cccc(Cl)c4)c4ccccc34)c3ccccc32)c1 | RXF 393 renal | > 100 µM |
| CC(C)CC(=O)N1CCN(C(=O)CC(C)C)c2ccccc21 | RXF 393 renal | > 100 µM |
| Cc1nc2ccc(N=Nc3c(O)ccc4ccccc34)cc2[nH]1 | RXF 393 renal | > 57.9 µM |
| Nc1ccc(S(=O)(=O)Nc2nc3ccccc3nc2Nc2ccc(S(N)(=O)=O)cc2)cc1 | RXF 393 renal | 62 µM |
| NNC(=O)CC(=O)Nc1ccc(C(=O)O)cc1 | RXF 393 renal | > 100 µM |

Query: // query TGI value for entry COC1OC(COCc2ccc(Cl)cc2)C(OCc2ccc(Cl)cc2)C1O (stereo not given)
Result: 29.1 µM

Query: Now give it for `CCC[CH2][Sn]([CH2]CCC)([O]C(=O)c1cc(OC)c(OC)c(OC)c1)[O]C(=O)c1cc(OC)c(OC)c(OC)c1` too.
Result: 1.12 µM

Query: Item: `Cc1cc(C)nc(NC(=S)Nc2cccc(Cl)c2)c1`
Result: > 100 µM

Query: Now consider `Cc1cc(=O)[nH]c(CNC(=O)c2cccc3ccccc23)n1` .
Result: > 100 µM

Query: # repeat for COC(=O)C(C(=O)C(=O)Nc1c(Cl)cc([N+](=O)[O-])cc1Cl)c1nc2cc(C)c(C)cc2[nH]c1=O (stereo not given)
Result: > 100 µM
